tested on: E. coli N43 (CGSC# 5583); assay: MIC broth microdilution, E. coli N43; type: cell-based; conditions: Escherichia coli, read-out: E. coli N43 MIC in molar
Output Fulfilled for records whose MIC is lower than 2 µM, Not fulfilled for records at or above 2 µM.

Check if MIC falls below 2 µM for COc1ccc2nccc(CCN3CCC(NCc4ccc(CO)cc4)CC3)c2n1 . Not fulfilled

Check if MIC falls below 2 µM for COc1ccc2nccc(CCN3CCC(NCc4cnn(-c5ccc(F)cc5)c4)CC3)c2n1 . Not fulfilled

Check if MIC falls below 2 µM for COc1ccc(CNC2CCN(CCc3ccnc4ccc(OC)nc34)CC2)cn1 . Not fulfilled

Check if MIC falls below 2 µM for COc1ccc2nccc(CCN3CCC(NCc4ccc(OC(F)F)c(OC)c4)CC3)c2n1 . Not fulfilled

Check if MIC falls below 2 µM for COc1ccc2nccc(CCN3CCC(NCc4ccc(Br)cc4)CC3)c2n1 . Fulfilled
